Assay: Cytotoxicity on differentiated THP-1 macrophages
Assay type: cell-based
Conditions: human, differentiated THP-1 macrophages

| COMPOUND | CC50 (µM) |
| --- | --- |
| O=C(/C=C/c1ccc([N+](=O)[O-])o1)c1ccc(I)cc1 | 49.5 |
| C[C@@H]1[C@H](O)[C@@H](C)/C=C/C=C/C=C/C=C/C=C/C=C/C=C/[C@H](O[C@@H]2O[C@H](C)[C@@H](O)[C@H](N)[C@@H]2O)C[C@@H]2O[C@](O)(C[C@@H](O)C[C@@H](O)[C@H](O)CC[C@@H](O)C[C@@H](O)CC(=O)O[C@H]1C)C[C@H](O)[C@H]2C(=O)O [Amph.B, Amphotericin B, reference compound] | 9.8 |
| CC(C)(C)c1ccc(C(=O)/C=C/c2ccc([N+](=O)[O-])s2)cc1 | 8.4 |
| O=C(/C=C/c1ccc([N+](=O)[O-])o1)c1ccc(C2CCCCC2)cc1 | 31.1 |
